Tested on: Porcine atria myofibrils (atrial myosin ATPase)
test: Myofibril ATPase assay, porcine atria myofibrils
Assay type: biochemical
measurement context: Y75 value (no ‡ mark); porcine atria myofibrils
endpoint name: Atrial EC25 (µM)
// return numeric value only (unit: µM, not printed)

compound	quantity unit	Atrial EC25
Cc1c(CC(=O)N[C@@H](C)c2ncc(C#N)cc2F)c(=O)[nH]c2ccc(F)cc12	µM	0.12

So what does the record say about Atrial EC25 for Cc1c(CC(=O)N[C@@H](C)c2ncc(C#N)cn2)c(=O)[nH]c2ccc(F)c(Cl)c12 (single isomer, unassigned) ? 0.11

Another compound: `C[C@H](NC(=O)Cc1cc2cc(F)c(F)cc2[nH]c1=O)c1cnc(C#N)nc1` 16.51

Another compound: `Cc1c(CC(=O)N[C@@H]2COCc3cc(C#N)cnc32)c(=O)[nH]c2ccc(F)cc12` 100.00

###

Tested on: Rabbit Psoas myofibrils (skeletal myosin ATPase)
test: Myofibril ATPase assay, rabbit psoas (skeletal) myofibrils
Assay type: biochemical
measurement context: Y75 value (no ‡ mark); rabbit psoas myofibrils
Each entry below lists one item and its recorded Skeletal EC25 value.
Give the number first and the unit second.

compound	Skeletal EC25
Cc1c(C2(C(=O)N[C@H]3CCc4cc(C#N)cnc43)CC2)c(=O)[nH]c2ccc(F)c(F)c12 (single isomer, unassigned) [compound 4804]	100000 nM

So what does the record say about Skeletal EC25 for Cc1c(F)ccc2[nH]c(=O)c(CC(=O)N[C@@H](C)c3ccc(C#N)cc3F)c(O)c12 [compound 20] ? 510 nM

Another compound: Cc1c(CC(=O)N[C@H](C)c2ccc(C#N)cc2F)c(=O)[nH]c2ccc(F)c(C3CC3)c12 [compound 69] 10 nM

Another compound: C[C@@H](NC(=O)C(F)(F)c1cc2c(F)c(F)ccc2[nH]c1=O)c1nccc(C#N)n1 (single isomer, unassigned) [compound 2561] 250 nM

Another compound: C[C@@H](NC(=O)C(F)(F)c1cc2c(F)c(F)ccc2[nH]c1=O)c1ncc(C#N)cn1 (single isomer, unassigned) [compound 2545] 130 nM

Another compound: C[C@H](NC(=O)[C@H](C)c1cc2c(F)c(F)ccc2[nH]c1=O)c1ccc(F)cc1F (single isomer, unassigned) [compound 111] 110 nM

###

System: Porcine atria myofibrils (atrial myosin ATPase)
test: Myofibril ATPase assay, porcine atria myofibrils
Type: biochemical
measurement context: Y75 value (no ‡ mark); porcine atria myofibrils
endpoint name: Atrial EC25 (nM)
// return numeric value only (unit: nM, not printed)

Below, each entry is followed by its recorded Atrial EC25 result.
compound	Atrial EC25 [nM]
C[C@H](NC(=O)[C@@H](C)c1cc2c(F)c(F)ccc2[nH]c1=O)c1ccc(F)cc1F (single isomer, unassigned)	520
Cc1c(C(F)(F)C(=O)N[C@@H](C)c2ncc(C#N)cc2F)c(=O)[nH]c2cccc(C#N)c12 (single isomer, unassigned)	90
C[C@@H](NC(=O)Cc1cc2ccc(F)cc2[nH]c1=O)c1ncc(C#N)cn1 (single isomer, unassigned)	100000
Cc1c(C(F)(F)C(=O)N[C@H](C)c2ncc(F)cc2F)c(=O)[nH]c2ccc(F)cc12 (single isomer, unassigned)	280
Cc1c(CC(=O)N[C@H](C)c2cnc(C#N)nc2)c(=O)[nH]c2ccc(F)cc12	770
C[C@@H](NC(=O)Cc1cc2cc(F)c(F)cc2[nH]c1=O)c1ncc(C#N)cc1F (single isomer, unassigned)	3400
Cc1c(C2(C(=O)N[C@H](C)c3ncc(C#N)cn3)CC2)c(=O)[nH]c2cccc(C#N)c12 (single isomer, unassigned)	730
Cc1c(C2(C(=O)N[C@H](C)c3cccc(C#N)n3)CC2)c(=O)[nH]c2ccc(F)cc12 (single isomer, unassigned)	100000

So what does the record say about Atrial EC25 for `Cc1c(CC(=O)N[C@H](C)c2ccc(C#N)nn2)c(=O)[nH]c2cc(F)c(F)cc12` ? 890

Another compound: `Cc1c(CC(=O)N[C@H](C)c2ccc(C#N)nn2)c(=O)[nH]c2cccc(C#N)c12` 420

Another compound: Cc1c(C2(C(=O)N[C@@H](C)c3ncc(C#N)cn3)CC2)c(=O)[nH]c2ccc(F)c(C#N)c12 (single isomer, unassigned) 890

Another compound: Cc1c(C2(C(=O)N[C@H](C)c3ncc(C#N)cc3F)CC2)c(=O)[nH]c2cccc(C#N)c12 (single isomer, unassigned) 330

Another compound: Cc1c(C2(C(=O)N[C@H](C)c3cc(C#N)ccn3)CC2)c(=O)[nH]c2ccc(F)c(F)c12 (single isomer, unassigned) 2760

Another compound: C[C@@H](NC(=O)C1(c2cc3c(F)c(F)ccc3[nH]c2=O)CC1)c1cc(C#N)ccn1 (single isomer, unassigned) 4310

Another compound: Cc1c(F)ccc2[nH]c(=O)c(C(F)(F)C(=O)N[C@@H](C)c3ncc(C#N)cn3)c(C)c12 (single isomer, unassigned) 120

Another compound: Cc1c(C(F)(F)C(=O)N[C@H](C)c2ncc(C#N)cn2)c(=O)[nH]c2ccc(F)cc12 (single isomer, unassigned) 230

Another compound: `Cc1c(CC(=O)N[C@@H](C)c2cnc(C#N)cn2)c(=O)[nH]c2cc(F)c(F)cc12` 400

Cited source: patent US12448369B2
